MIC90 values by entry
Test system: Mycobacterium tuberculosis variant bovis BCG
measurement-description: microbe, parasite or virus in culture
Format: functional
observed-property: MIC90

• O=C(Nc1nnc(-c2ccc(Cl)cc2)o1)c1ccc(F)cc1 = 3.9 µM
• Cc1ccc2nc(C(F)(F)F)c(C(=O)NCc3cccc(OC(C)C)c3)n2c1 = 1.9 µM
• O=C(Nc1nc(-c2ccccn2)cs1)c1cccc(F)c1 = 2 µM
• CC(C)N1CCN(c2nc(CCN3CCN(c4cccc(C(F)(F)F)c4C#N)CC3)cs2)CC1 = 5.5 µM
• Clc1ccc(Nc2nc(-c3ccccn3)cs2)nc1 = 1.2 µM
• Cn1nc(C(=O)N2CCc3sccc3C2c2ccccc2)c2ccccc2c1=O (stereo unspecified) = 2 µM
• O=C(Nc1nc(-c2ccccn2)cs1)c1cc2c(s1)CCCCC2 = 3.1 µM
• CC(C)Cc1cn(-c2nc(CN3CCCC3)cs2)c2cc(Cl)ccc12 = 1.9 µM
• COc1cc(C2c3c(-c4ccccc4)n[nH]c3C(=O)N2c2ccc(Cl)cc2)ccc1O (stereo unspecified) = 5.4 µM
• O=C(Nc1ccc(OC(F)(F)F)cc1)NC1CCCCC1 = 4.8 µM
• CN(C)C1CCN(C(=O)c2csc(-c3cccc(Cl)c3Cl)n2)C1 (stereo unspecified) = 8.5 µM

====

MIC90 values by entry
Tested on: Mycobacterium tuberculosis variant bovis BCG
measurement-description: microbe, parasite or virus in culture
Format: functional
observed-property: MIC90 (µM)

• COCc1nc(N2CCCNCC2)c2c(C)nn(-c3cccc(Cl)c3)c2n1 = 0.4
• CC(=O)Oc1ccc(Cn2cc(C(=O)NCc3ccccc3)sc2=O)cc1 = 6.9
• Cc1cc(C)c2cc(CN(Cc3cccnc3)C(=O)c3ccc(F)cc3)c(Cl)nc2c1 = 2.9
• Cn1nc(C(=O)N2CCc3sccc3C2c2cccs2)c2ccccc2c1=O (configuration not stated) = 4.6
• Cc1csc(NC(=O)CSc2nc(C)c(C)n2Cc2ccc(Cl)cc2)c1C#N = 0.9
• CC(C)c1ccc(OCC(=O)NNC(=O)c2ccncc2)cc1 = 6.5
• Cc1cc(S(=O)(=O)c2ccccc2)cc2c(Nc3ccc(N4CCOCC4)cc3)c(C(N)=O)cnc12 = 8.8
• O=C(Nc1nc(-c2ccccn2)cc2ccccc12)c1cccc(Cl)c1 = 3
• COc1ccc(-c2ccc(Nc3cccc(S(=O)(=O)CCNCC(C)(C)C)c3)nc2)cn1 = 2.9
• Cc1cc(Oc2cccc3[nH]ccc23)nc(N2CCNCC2)n1 = 6.2
• Cc1cc(NC(=O)c2cc(Br)ccc2Cl)n(-c2nc(C)c(C)c(=O)[nH]2)n1 = 5.3
• CCCc1cc(-c2nc(-c3ccc4c(c3)OCO4)cs2)ccn1 = 6.7
• Clc1ccc(CCNc2cc(-c3ccccc3)nc3ncnn23)cc1 = 4
• O=C(Nc1ccccc1-c1nc(Br)cs1)OCC1CCNCC1 = 8
• CCS(=O)(=O)c1ccc(C(=O)Nc2nc(-c3ccccn3)cs2)cc1 = 3.7
• O=C1N(C2CCCCC2)CCS1(=O)=O = 3.1
• Cc1cc(CN2CCCN(c3ncc(-c4ccsc4)c4nc(C(F)(F)F)ccc34)CC2)no1 = 9.8
• Br.CC1(C)NC(N)=NC(=N)N1OCCCOc1ccc(Cl)cc1Cl = 4.5
• O=C(Nc1ccc2c(c1)OCC(=O)N2Cc1ccccc1Cl)NC1CCCCC1 = 5.7
• COc1ccc2c(ccn2C(=O)OCCC2CCNCC2)c1 = 4.4
• Cc1c(C(=O)Nc2ccccc2)nnc2cc(-c3ccccc3)nn12 = 3.1
• CN(Cc1nc2ccccc2s1)C(=O)c1ccc2c(c1)CC(c1ccccc1)OC2=O (configuration not stated) = 4.7

====

Test system: Mycobacterium tuberculosis variant bovis BCG
measurement-description: microbe, parasite or virus in culture
Type: functional
MIC90 values by entry
observed-property: MIC90 (µM)

* c1ccc(SCc2nn3c(-c4ccccc4)nnc3s2)cc1 | 7.5
* Nc1cccnc1Nc1ccc(C(F)(F)F)cc1 | 3.7
* c1ccc(-c2nc(N3CCCCCC3)nc(-n3ccnc3)n2)cc1 | 9.6
* O=C(Nc1nnc(SCc2ccc(F)cc2)s1)c1ccccn1 | 4.6
* O=C(Nc1nnc(-c2ccc(Cl)s2)o1)c1ccc(S(=O)(=O)N2CCCCC2)cc1 | 7.3
* Fc1ccc2nc(Nc3nc(-c4ccccn4)cs3)sc2c1 | 1

====

System: Mycobacterium tuberculosis variant bovis BCG
measurement-description: microbe, parasite or virus in culture
Format: functional
Exam item: assign class 1 to entries whose MIC90 is below 7 µM and class 0 to entries at or above 7 µM. Note that a value of exactly 7 µM receives class 0.

* COc1ccc2nc(C)cc(OCC(=O)Nc3ccccc3OC)c2c1 | class 1
* N#Cc1nc(-c2ccccc2F)oc1NCCc1ccccc1 | class 0
* Cc1ccc(S(=O)(=O)N2CCC(n3nnc4cc(C(F)(F)F)ccc43)CC2)cc1Cl | class 0
* CNC(=O)c1cc(Nc2ncc(F)c(N(C)c3ccc4c(C)[nH]nc4c3)n2)cc(OCCCN)c1 | class 0
* Cc1ccc(SCCC(=O)Nc2nc(-c3ccccn3)cs2)cc1 | class 1
* O=C(NCc1cc(Cl)cc(Cl)c1)c1c(C(F)(F)F)nc2ccccn12 | class 1
* Clc1ccc2c(N3CCNCC3)ccnc2c1 | class 1
* CC(=O)NCCn1c(Sc2ccnc(N3CCN(c4ccncc4)CC3)n2)nnc1-c1ccccc1 | class 1

====

System: Mycobacterium tuberculosis variant bovis BCG
measurement-description: microbe, parasite or virus in culture
Assay type: functional
MIC90 values by entry
observed-property: MIC90 (µM)

* Nc1cccnc1Nc1ccc(Cl)cc1 | 1.1
* O=C(CCSc1ccc(Cl)cc1)Nc1nc(-c2ccccn2)cs1 | 3.9
* O=C(Nc1nnc(-c2ccc3c(c2)CCCC3)o1)c1ccc(Cl)s1 | 3.8
* Cc1nc(-c2cccnc2)nc(N2CCCN(Cc3ccc(F)cc3)CC2)c1Cl | 5.5
* Cc1ccc2nc(SCC(=O)N(C(C)C)C(C)C)[nH]c2c1 | 9.9
* Cn1cc(NC(=O)c2cc(NC(=O)CNC(=N)N)cn2C)cc1C(=O)NCCC(=N)N [NETROPSIN CHLORIDE] | 3.6
* COc1cc(Nc2ccccc2)ccc1NS(=O)(=O)c1ccc(-c2cc(C(F)(F)F)n(C)n2)s1 | 2.8
* CCOc1ncccc1C(=O)Nc1ccccc1Nc1ccccc1 | 6.4
* CN(C)S(=O)(=O)c1ccc(C(=O)Nc2nnc(-c3ccc(Br)cc3)o2)cc1 | 8
* Cc1ccc2nc(C(F)(F)F)c(C(=O)NCc3ncc(C(F)(F)F)cc3Cl)n2c1 | 9.9

====

Tested on: Mycobacterium tuberculosis variant bovis BCG
measurement-description: microbe, parasite or virus in culture
Format: functional
Exam item: assign 1 (yes) to entries whose MIC90 is below 3 µM and 0 (no) to entries at or above 3 µM. Note that a value of exactly 3 µM receives 0 (no).

* O=C(COc1ccc2c(c1)CCC2)NNC(=O)c1cccs1 | 0 (no)
* O=C(Nc1nncs1)c1c(O)c2ccccc2n(Cc2ccccc2)c1=O | 0 (no)
* COc1ccc(S(=O)(=O)CC(=O)N(CCN(C)C)c2nc3c(C)ccc(Cl)c3s2)cc1 | 0 (no)
* CSc1ccccc1C(=O)Nc1nc(-c2ccccn2)cs1 | 0 (no)
* Cc1ccc(C)c(-c2nnc(NC(=O)c3ccc(Cl)s3)o2)c1 | 1 (yes)
* Cc1nn(CC(C)C)c2sc(C(=O)Nc3nc(-c4ccccn4)cs3)cc12 | 0 (no)
* Cc1ccc2nc(C)c(C(=O)NCc3cccs3)n2c1 | 1 (yes)
* Cc1cccc2nc(C(=O)Nc3nc(CN4CCC(C)CC4)cs3)cn12 | 1 (yes)
* Cc1cc(C)c2cc(C(=O)NC3CCCCC3)[nH]c2c1 | 1 (yes)
* CSc1ccc(-c2nnc(NC(=O)c3ccc(Cl)s3)o2)cc1 | 0 (no)
* O=C(O)COCC(=O)NNC(=O)c1ccncc1 | 1 (yes)
* COc1ccccc1NC(=O)CN(Cc1ccco1)C(=O)c1cccc(NC(=O)c2cccs2)c1 | 1 (yes)
* CN1CCN(c2cc(-c3ccc(F)cc3)nc(-c3ccncc3)n2)CC1 | 0 (no)
* COc1ccc2cc(C(=O)Nc3ccc(C4CCN(C)CC4)cc3)sc2c1 | 1 (yes)
* Cc1cc(OCC(=O)Nc2ccccc2)c2cc(Br)ccc2n1 | 1 (yes)
* Cc1ccc(S(=O)(=O)c2nc(S(=O)(=O)c3ccccc3)sc2Cl)cc1 | 0 (no)
* Cc1ccc2nc(C)c(-c3ccn(Cc4ccccc4)n3)n2c1 | 0 (no)
* CCN(Cc1ccc2c(c1)OCO2)C(=O)CSc1nc(NC)c2ccccc2n1 | 0 (no)
* CCc1ccc(CN2CCC3(CC2)OCCc2sccc23)s1 | 1 (yes)
* CC(C)c1ccc2oc(-c3ccc(NC(=O)c4cccnc4)cc3)nc2c1 | 1 (yes)
* O=C(c1cnn(C(=O)c2ccco2)c1)c1ccccc1O | 1 (yes)
* Cc1ccc(N2CCN(CCOc3cccc(-c4ccc(C(=O)N5CCCC5)cc4)c3)CC2)cc1C | 1 (yes)
* CC(=O)N1CCc2cc3nc(C)cc(C)c3cc21 | 0 (no)
